Consider the following compounds; for each one, report its pIC50.
# Test system: phospho-ERK in MIA PaCa2 or H358 cells
# Assay Explanation: Phospho-ERK assay (AlphaLisa)
# Type: cell-based
# Assay Conditions: 1.5 h, MIA PaCa2 or H358 cells, compound incubated 1.5 hours; read-out: IC50 (p-ERK)
pIC50: −log10 of the molar value.

Incoming: Reported pIC50 for `C[C@@H]1OCC2(CCN(c3cnc(Sc4ccc5ncn(CCCO)c(=O)c5c4Cl)cn3)CC2)[C@@H]1N` : what is it?
Outgoing: > 7.35

Incoming: Now consider `C[C@@H]1OCC2(CCN(c3cnc(Sc4ccc5ncn(Cc6ccn(C)n6)c(=O)c5c4Cl)cn3)CC2)[C@@H]1N` and answer again.
Outgoing: > 7.35

Incoming: Now consider `N[C@H]1c2scnc2CC12CCN(c1cnc(Sc3ccc4ncn(CC5CCOCC5)c(=O)c4c3Cl)cn1)CC2` and answer again.
Outgoing: 5.82 to 7.35

Incoming: Now consider `Cn1c(N2CCN[C@@H](CN)C2)nc(N)c(Sc2cccc(Cl)c2Cl)c1=O` and answer again.
Outgoing: < 5.82

Incoming: Now consider `COc1cccc(Cn2cnc3ccc(Sc4cnc(N5CCC6(CC5)CO[C@@H](C)[C@H]6N)cn4)c(Cl)c3c2=O)c1F` and answer again.
Outgoing: > 7.35

Incoming: Now consider `Cn1c(N2CCN(CCN)CC2)nc(N)c(Sc2cccc(Cl)c2Cl)c1=O` and answer again.
Outgoing: < 5.82

Incoming: Now consider C[C@@H]1OCC2(CCN(c3cnc(Sc4ccc5ncn(CC(O)CF)c(=O)c5c4Cl)cn3)CC2)[C@@H]1N (stereo partly shown) and answer again.
Outgoing: 5.82 to 7.35

* * *

# Measured On: SHP2 (full length) (Homo sapiens)
# Construct: SHP2 (full length, diluted to 100 pM final concentration in reaction buffer, BPS bioscience, US); purchased BPS bioscience, US
# Sequence (Q06124 1-593): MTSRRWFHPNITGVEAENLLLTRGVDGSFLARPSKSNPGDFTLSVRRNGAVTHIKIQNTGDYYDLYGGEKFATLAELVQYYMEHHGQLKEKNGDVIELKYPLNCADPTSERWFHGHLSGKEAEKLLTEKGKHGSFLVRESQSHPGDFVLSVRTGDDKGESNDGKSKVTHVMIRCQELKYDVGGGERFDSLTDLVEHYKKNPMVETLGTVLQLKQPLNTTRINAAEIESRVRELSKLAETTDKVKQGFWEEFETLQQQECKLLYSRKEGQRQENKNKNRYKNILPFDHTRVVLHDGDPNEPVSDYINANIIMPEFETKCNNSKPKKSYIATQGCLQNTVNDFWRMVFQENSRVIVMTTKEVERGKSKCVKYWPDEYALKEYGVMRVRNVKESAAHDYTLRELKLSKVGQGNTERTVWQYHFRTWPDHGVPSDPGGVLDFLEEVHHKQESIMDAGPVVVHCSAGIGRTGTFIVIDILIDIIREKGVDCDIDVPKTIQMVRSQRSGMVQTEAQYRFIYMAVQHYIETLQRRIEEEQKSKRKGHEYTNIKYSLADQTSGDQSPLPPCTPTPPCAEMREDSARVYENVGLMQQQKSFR
# Assay Explanation: Phosphatase assay (PTPase assay) with DiFMUP substrate
# Type: biochemical
# Assay Conditions: SHP2 activated with SHP2 activating peptide; DiFMUP 80 μM, 2 hours; fluorescence; read-out: IC50 (PTPase aS say)
pIC50: −log10 of the molar value.
Consider the following compounds; for each one, report its pIC50.

Incoming: Reported pIC50 for `C[C@@H]1OCC2(CCN(c3cnc(Sc4ccc5ncn(CCO)c(=O)c5c4Cl)cn3)CC2)[C@@H]1N` : what is it?
Outgoing: 7.00 to 8.52

Incoming: Now consider C[C@@H]1OCC2(CCN(c3cnc(Sc4ccc5ncn(CC6CCNC6)c(=O)c5c4Cl)cn3)CC2)[C@@H]1N (stereo partly shown) and answer again.
Outgoing: 7.00 to 8.52

Incoming: Now consider `COCCn1cnc2ccc(Sc3ncc(N4CCC5(CC4)Cc4scnc4[C@H]5N)nc3N)c(Cl)c2c1=O` and answer again.
Outgoing: > 8.52

Incoming: Now consider `COCCn1cnc2ccc(Sc3cnc(N4CCC5(CC4)Cc4ccc(OC)cc4[C@H]5N)cn3)c(Cl)c2c1=O` and answer again.
Outgoing: > 8.52
